The reader will find reported selectivity ratio values listed item by item below.
- EXPERIMENTAL_DETAILS: Selectivity index, ratio of IC50 for human ARPE19 cells to IC50 for cisplatin-sensitive human A2780 cells
- Format: toxicity
- CONDITION: ARPE19 cells versus cisplatin-sensitive A2780 cells, read-out: Ratio IC50
TEST_READOUT: selectivity ratio

1. CCCC[Si](CCCC)(CCCC)OCC1=C(C)C[C@H]([C@@H](C)[C@H]2CC[C@H]3[C@@H]4C[C@H]5O[C@]56[C@@H](O)C=CC(=O)[C@]6(C)[C@H]4CC[C@]23C)OC1=O; 9.6
2. CCC[Si](CCC)(CCC)OCC1=C(C)C[C@H]([C@@H](C)[C@H]2CC[C@H]3[C@@H]4C[C@H]5O[C@]56C(=O)C=CC(=O)[C@]6(C)[C@H]4CC[C@]23C)OC1=O; 25.2
3. CCCCCCCC[Si](C)(C)OCC1=C(C)C[C@H]([C@@H](C)[C@H]2CC[C@H]3[C@@H]4C[C@H]5O[C@]56[C@@H](O)C=CC(=O)[C@]6(C)[C@H]4CC[C@]23C)OC1=O; 3.2
4. CC1=C(CO[Si](C(C)C)(C(C)C)C(C)C)C(=O)O[C@@H]([C@@H](C)[C@H]2CC[C@H]3[C@@H]4C[C@H]5O[C@]56[C@@H](O)C=CC(=O)[C@]6(C)[C@H]4CC[C@]23C)C1; 2.1

###

The reader will find reported selectivity ratio values listed item by item below.
- EXPERIMENTAL_DETAILS: Selectivity index, ratio of IC50 for human ARPE19 cells to IC50 for cisplatin-resistant human A2780/CP70 cells
- Format: toxicity
- CONDITION: ARPE19 cells versus cisplatin-resistant A2780/CP70 cells, read-out: Ratio IC50
TEST_READOUT: selectivity ratio

1) C=C[Si](C)(C)OCC1=C(C)C[C@H]([C@@H](C)[C@H]2CC[C@H]3[C@@H]4C[C@H]5O[C@]56[C@@H](O)C=CC(=O)[C@]6(C)[C@H]4CC[C@]23C)OC1=O; 2.8
2) CC1=C(CO[Si](c2ccccc2)(c2ccccc2)C(C)(C)C)C(=O)O[C@@H]([C@@H](C)[C@H]2CC[C@H]3[C@@H]4C[C@H]5O[C@]56[C@@H](O)C=CC(=O)[C@]6(C)[C@H]4CC[C@]23C)C1; 79.1

###

The reader will find reported selectivity ratio values listed item by item below.
- EXPERIMENTAL_DETAILS: Selectivity index, ratio of IC50 for human ARPE19 cells to IC50 for cisplatin-sensitive human A2780 cells
- Type: toxicity
- CONDITION: ARPE19 cells versus cisplatin-sensitive A2780 cells, read-out: Ratio IC50
TEST_READOUT: selectivity ratio

1) CCCCCCCC[Si](C)(C)OCC1=C(C)C[C@H]([C@@H](C)[C@H]2CC[C@H]3[C@@H]4C[C@H]5O[C@]56[C@@H](O[Si](C)(C)CCCCCCCC)C=CC(=O)[C@]6(C)[C@H]4CC[C@]23C)OC1=O; 212
2) CCC[Si](CCC)(CCC)OCC1=C(C)C[C@H]([C@@H](C)[C@H]2CC[C@H]3[C@@H]4C[C@H]5O[C@]56[C@@H](O)C=CC(=O)[C@]6(C)[C@H]4CC[C@]23C)OC1=O; 0.9

###

- EXPERIMENTAL_DETAILS: Selectivity index, ratio of IC50 for human ARPE19 cells to IC50 for cisplatin-sensitive human A2780 cells
- Format: toxicity
- CONDITION: ARPE19 cells versus cisplatin-sensitive A2780 cells, read-out: Ratio IC50
TEST_READOUT: selectivity ratio

1. CC1=C(CO[Si](C)(C)C(C)C)C(=O)O[C@@H]([C@@H](C)[C@H]2CC[C@H]3[C@@H]4C[C@H]5O[C@]56[C@@H](O)[C@@H](n5ccnc5)CC(=O)[C@]6(C)[C@H]4CC[C@]23C)C1; 2.6
2. C=C[Si](C)(C)OCC1=C(C)C[C@H]([C@@H](C)[C@H]2CC[C@H]3[C@@H]4C[C@H]5O[C@]56[C@@H](O[Si](C)(C)C=C)C=CC(=O)[C@]6(C)[C@H]4CC[C@]23C)OC1=O; 2.8

###

The reader will find reported selectivity ratio values listed item by item below.
- EXPERIMENTAL_DETAILS: Selectivity index, ratio of IC50 for human ARPE19 cells to IC50 for cisplatin-sensitive human A2780 cells
- Type: toxicity
- CONDITION: ARPE19 cells versus cisplatin-sensitive A2780 cells, read-out: Ratio IC50
TEST_READOUT: selectivity ratio

1) CC1=C(CO[Si](C)(C)c2ccccc2)C(=O)O[C@@H]([C@@H](C)[C@H]2CC[C@H]3[C@@H]4C[C@H]5O[C@]56C(=O)C=CC(=O)[C@]6(C)[C@H]4CC[C@]23C)C1; 39.1
2) CC1=C(CO[Si](C)(C)c2ccccc2)C(=O)O[C@@H]([C@@H](C)[C@H]2CC[C@H]3[C@@H]4C[C@H]5O[C@]56[C@@H](O[Si](C)(C)c5ccccc5)C=CC(=O)[C@]6(C)[C@H]4CC[C@]23C)C1; 107
3) CCCC[Si](CCCC)(CCCC)OCC1=C(C)C[C@H]([C@@H](C)[C@H]2CC[C@H]3[C@@H]4C[C@H]5O[C@]56C(=O)C=CC(=O)[C@]6(C)[C@H]4CC[C@]23C)OC1=O; 11.6
4) C=C[Si](C)(C)OCC1=C(C)C[C@H]([C@@H](C)[C@H]2CC[C@H]3[C@@H]4C[C@H]5O[C@]56[C@@H](O)C=CC(=O)[C@]6(C)[C@H]4CC[C@]23C)OC1=O; 3.2

###

The reader will find reported selectivity ratio values listed item by item below.
- EXPERIMENTAL_DETAILS: Selectivity index, ratio of IC50 for human ARPE19 cells to IC50 for cisplatin-sensitive human A2780 cells
- Format: toxicity
- CONDITION: ARPE19 cells versus cisplatin-sensitive A2780 cells, read-out: Ratio IC50
TEST_READOUT: selectivity ratio

1) CC1=C(CO[Si](c2ccccc2)(c2ccccc2)C(C)(C)C)C(=O)O[C@@H]([C@@H](C)[C@H]2CC[C@H]3[C@@H]4C[C@H]5O[C@]56[C@@H](O)C=CC(=O)[C@]6(C)[C@H]4CC[C@]23C)C1; 49.9
2) CC1=C(CO[Si](C)(c2ccccc2)c2ccccc2)C(=O)O[C@@H]([C@@H](C)[C@H]2CC[C@H]3[C@@H]4C[C@H]5O[C@]56[C@@H](O)C=CC(=O)[C@]6(C)[C@H]4CC[C@]23C)C1; 3.2
3) CC1=C(CO[Si](C)(c2ccccc2)c2ccccc2)C(=O)O[C@@H]([C@@H](C)[C@H]2CC[C@H]3[C@@H]4C[C@H]5O[C@]56C(=O)C=CC(=O)[C@]6(C)[C@H]4CC[C@]23C)C1; 58.6
4) CC1=C(CO[Si](C)(C)C(C)C)C(=O)O[C@@H]([C@@H](C)[C@H]2CC[C@H]3[C@@H]4C[C@H]5O[C@]56[C@@H](O)C=CC(=O)[C@]6(C)[C@H]4CC[C@]23C)C1; 191
5) CC[Si](CC)(CC)OCC1=C(C)C[C@H]([C@@H](C)[C@H]2CC[C@H]3[C@@H]4C[C@H]5O[C@]56C(=O)C=CC(=O)[C@]6(C)[C@H]4CC[C@]23C)OC1=O; 53.5
6) CC1=C(CO)C(=O)O[C@@H]([C@@H](C)[C@H]2CC[C@H]3[C@@H]4C[C@H]5O[C@]56[C@@H](O)C=CC(=O)[C@]6(C)[C@H]4CC[C@]23C)C1 [WITHAFERIN A]; 1.1
7) CC1=C(CO)C(=O)O[C@@H]([C@@H](C)[C@H]2CC[C@H]3[C@@H]4C[C@H]5O[C@]56C(=O)C=CC(=O)[C@]6(C)[C@H]4CC[C@]23C)C1; 4.3
8) CC1=C(CO[Si](C)(C)C(C)(C)C)C(=O)O[C@@H]([C@@H](C)[C@H]2CC[C@H]3[C@@H]4C[C@H]5O[C@]56[C@@H](O)C=CC(=O)[C@]6(C)[C@H]4CC[C@]23C)C1; 0.3
9) CC1=C(CO[Si](C(C)C)(C(C)C)C(C)C)C(=O)O[C@@H]([C@@H](C)[C@H]2CC[C@H]3[C@@H]4C[C@H]5O[C@]56C(=O)C=CC(=O)[C@]6(C)[C@H]4CC[C@]23C)C1; 1.1

###

- EXPERIMENTAL_DETAILS: Selectivity index, ratio of IC50 for human ARPE19 cells to IC50 for cisplatin-resistant human A2780/CP70 cells
- Assay type: toxicity
- CONDITION: ARPE19 cells versus cisplatin-resistant A2780/CP70 cells, read-out: Ratio IC50
# y = selectivity ratio below 3 (exclusive); n = selectivity ratio at/above 3

1. CC1=C(CO[Si](C)(C)C(C)(C)C)C(=O)O[C@@H]([C@@H](C)[C@H]2CC[C@H]3[C@@H]4C[C@H]5O[C@]56C(=O)C=CC(=O)[C@]6(C)[C@H]4CC[C@]23C)C1; n
2. CCCCCCCC[Si](C)(C)OCC1=C(C)C[C@H]([C@@H](C)[C@H]2CC[C@H]3[C@@H]4C[C@H]5O[C@]56[C@@H](O)C=CC(=O)[C@]6(C)[C@H]4CC[C@]23C)OC1=O; y
3. CC1=C(CO[Si](C)(C)C(C)(C)C)C(=O)O[C@@H]([C@@H](C)[C@H]2CC[C@H]3[C@@H]4C[C@H]5O[C@]56[C@@H](O)C=CC(=O)[C@]6(C)[C@H]4CC[C@]23C)C1; y
4. C=C[Si](C)(C)OCC1=C(C)C[C@H]([C@@H](C)[C@H]2CC[C@H]3[C@@H]4C[C@H]5O[C@]56[C@@H](O[Si](C)(C)C=C)C=CC(=O)[C@]6(C)[C@H]4CC[C@]23C)OC1=O; n
5. CCCC[Si](CCCC)(CCCC)OCC1=C(C)C[C@H]([C@@H](C)[C@H]2CC[C@H]3[C@@H]4C[C@H]5O[C@]56[C@@H](O)C=CC(=O)[C@]6(C)[C@H]4CC[C@]23C)OC1=O; n
6. CC1=C(CO)C(=O)O[C@@H]([C@@H](C)[C@H]2CC[C@H]3[C@@H]4C[C@H]5O[C@]56[C@@H](O)C=CC(=O)[C@]6(C)[C@H]4CC[C@]23C)C1; y
7. CC1=C(CO[Si](C)(C)C)C(=O)O[C@@H]([C@@H](C)[C@H]2CC[C@H]3[C@@H]4C[C@H]5O[C@]56C(=O)C=CC(=O)[C@]6(C)[C@H]4CC[C@]23C)C1; n
8. CCCCCCCC[Si](C)(C)OCC1=C(C)C[C@H]([C@@H](C)[C@H]2CC[C@H]3[C@@H]4C[C@H]5O[C@]56[C@@H](O[Si](C)(C)CCCCCCCC)C=CC(=O)[C@]6(C)[C@H]4CC[C@]23C)OC1=O; n
9. CC1=C(CO)C(=O)O[C@@H]([C@@H](C)[C@H]2CC[C@H]3[C@@H]4C[C@H]5O[C@]56C(=O)C=CC(=O)[C@]6(C)[C@H]4CC[C@]23C)C1; n
10. CC1=C(CO[Si](C)(C)C(C)C)C(=O)O[C@@H]([C@@H](C)[C@H]2CC[C@H]3[C@@H]4C[C@H]5O[C@]56C(=O)C=CC(=O)[C@]6(C)[C@H]4CC[C@]23C)C1; n
11. CCC[Si](CCC)(CCC)OCC1=C(C)C[C@H]([C@@H](C)[C@H]2CC[C@H]3[C@@H]4C[C@H]5O[C@]56[C@@H](O)C=CC(=O)[C@]6(C)[C@H]4CC[C@]23C)OC1=O; n
12. CC[Si](CC)(CC)OCC1=C(C)C[C@H]([C@@H](C)[C@H]2CC[C@H]3[C@@H]4C[C@H]5O[C@]56C(=O)C=CC(=O)[C@]6(C)[C@H]4CC[C@]23C)OC1=O; n
13. CC1=C(CO[Si](C(C)C)(C(C)C)C(C)C)C(=O)O[C@@H]([C@@H](C)[C@H]2CC[C@H]3[C@@H]4C[C@H]5O[C@]56[C@@H](O)C=CC(=O)[C@]6(C)[C@H]4CC[C@]23C)C1; y
14. CC1=C(CO[Si](C)(C)C(C)C)C(=O)O[C@@H]([C@@H](C)[C@H]2CC[C@H]3[C@@H]4C[C@H]5O[C@]56[C@@H](O)[C@@H](n5ccnc5)CC(=O)[C@]6(C)[C@H]4CC[C@]23C)C1; y
15. CC1=C(CO[Si](C)(C)C(C)C)C(=O)O[C@@H]([C@@H](C)[C@H]2CC[C@H]3[C@@H]4C[C@H]5O[C@]56[C@@H](O)C=CC(=O)[C@]6(C)[C@H]4CC[C@]23C)C1; n
16. CC[Si](CC)(CC)OCC1=C(C)C[C@H]([C@@H](C)[C@H]2CC[C@H]3[C@@H]4C[C@H]5O[C@]56[C@@H](O)C=CC(=O)[C@]6(C)[C@H]4CC[C@]23C)OC1=O; y
17. CCC[Si](CCC)(CCC)OCC1=C(C)C[C@H]([C@@H](C)[C@H]2CC[C@H]3[C@@H]4C[C@H]5O[C@]56C(=O)C=CC(=O)[C@]6(C)[C@H]4CC[C@]23C)OC1=O; n
